The reported numbers originate from ChEMBL document CHEMBL3352346.

experiment: Volume of distribution at steady state in CD rat at 1 mg/kg, iv or 3 mg/kg, po using DMSO/10%(w/v) Kleptose, 0.9% saline(aq) (5%/95%); assay type: ADME, organism-based; settings: in vivo, read-out: Vdss
metric: Vd (L/kg)
Hi! Could you send only the number? It should be in L/kg, unit omitted.

// Vd lookup, molecule = CC(C)Oc1ncc(-c2nc(-c3cccc4c3OCCNC4CCCC(=O)O)no2)cc1Cl (single isomer, unassigned; enantiomer 1) , result: 0.6

###

target: Sphingosine 1-phosphate receptor 1 (Homo sapiens, UniProt P21453); test: Agonist activity at human S1P1R expressed in RH7777 membranes assessed as [35S]GTPgammaS binding after 30 mins
Sequence (P21453 whole entry): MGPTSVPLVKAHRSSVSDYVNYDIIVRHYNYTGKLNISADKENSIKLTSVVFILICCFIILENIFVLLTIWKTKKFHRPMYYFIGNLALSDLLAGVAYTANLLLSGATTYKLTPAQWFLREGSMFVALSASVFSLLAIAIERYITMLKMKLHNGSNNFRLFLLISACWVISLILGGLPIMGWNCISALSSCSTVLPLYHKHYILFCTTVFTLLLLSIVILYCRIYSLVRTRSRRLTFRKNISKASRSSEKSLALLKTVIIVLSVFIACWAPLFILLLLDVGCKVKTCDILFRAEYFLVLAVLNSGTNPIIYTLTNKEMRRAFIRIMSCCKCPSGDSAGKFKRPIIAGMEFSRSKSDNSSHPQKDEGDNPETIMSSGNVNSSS
Decision: EC50 beneath 80 nM gives 1; EC50 meeting or exceeding 80 nM gives -1.

Ask: # check: EC50 < 80 nM for CC(C)Oc1ccc(-c2nc(-c3ccc4c(cnn4CCC(=O)O)c3)no2)cc1Cl
Reply: 1

Ask: Lab log: compare recorded EC50 with 80 nM; is it strictly lower for CC(C)Oc1ccc(-c2nc(-c3ccc4c(c3)CCNCC4)no2)cc1Cl ?
Reply: -1

Ask: API: query returns whether the molecule falls strictly under 80 nM in EC50. Query: CC(C)Oc1ncc(-c2nc(-c3cccc4c3OCCNC4CCCC(=O)O)no2)cc1Cl (stereo in doubt; 31b)
Reply: 1

Ask: Confirm or reject: EC50 of CC(C)Oc1ccc(-c2nc(-c3cccc4c3CCNC4CC(=O)O)no2)cc1C#N (centres undefined) lies strictly below 80 nM
Reply: 1

Ask: I wonder whether CC(C)Oc1ccc(-c2nc(-c3ccc4c(c3)CCN(CC(=O)O)CC4)no2)cc1C#N has EC50 below 80 nM. Can you tell?
Reply: 1

Ask: Just wondering, is EC50 of O=C(O)c1cnn(Cc2ccc(-c3noc(-c4cc(-c5ccccc5)c(C(F)(F)F)s4)n3)cc2)c1 below 80 nM?
Reply: -1

Ask: Bench note: check whether CC(C)Oc1ccc(-c2nc(-c3cccc4c3CN(CCCC(=O)O)C4)no2)cc1C#N shows EC50 below 80 nM
Reply: -1

###

assay: Oral bioavailability in C57BL/6 mouse at 3 mg/kg using 1% methylcellulose (w/v); assay type: ADME, organism-based; conditions: in vivo
metric: bioavailability (%)
A number alone suffices; assume %.

Lab note: measured bioavailability of CC(C)Oc1ccc(-c2nc(-c3ccc4c(c3)CCNCC4)no2)cc1C#N was 63

###

assay: Half life in po dosed C57BL/6 mouse at 1 mg/kg, iv using DMSO/1% methylcellulose 1:99 (w/v); format: ADME, organism-based; design: dose 1 mg/kg, route oral; conditions: in vivo
Assignment: determine reported half-life for the given compounds.
Could you kindly put the unit after your number?

Kindly note the recorded half-life for CC(C)Oc1ccc(-c2nc(-c3ccc4c(c3)CCNCC4)no2)cc1C#N , which is 6.9 h

// field: half-life; key: CC(C)Oc1ccc(-c2nc(-c3ccc4c(c3)CCNCC4)no2)cc1Cl ; value = 9.5 h

###

biological target: Sphingosine 1-phosphate receptor 1 (Homo sapiens, UniProt P21453); test: Agonist activity at human S1P1R expressed in RH7777 membranes assessed as [35S]GTPgammaS binding after 30 mins
metric: EC50 (nM)
Provide the reading as a plain figure in nM.

Form field EC50, entry CC(C)Oc1ccc(-c2nc(-c3cccc4c3CCNCC4)no2)cc1C#N : 2

Please fill in: EC50 reported for CC(C)Oc1ccc(-c2nc(-c3cccc4c3CN(CCCC(=O)O)C4)no2)cc1Cl = 501

EC50 recorded for this compound, CC(C)Oc1ccc(-c2nc(-c3cccc4c3cnn4CCC(=O)[O-])no2)cc1Cl.[Na+] , is 20

So for CC(C)Oc1ccc(-c2nc(-c3ccc4c(c3)CCN(CCCC(=O)O)CC4)no2)cc1C#N , the logged EC50 turned out to be 7.94

CC(C)Oc1ccc(-c2nc(-c3ccc4c(c3)CCN(CCC(=O)O)CC4)no2)cc1Cl yielded EC50 of 7.94

###

assay: Half life in Beagle dog at 1 mg/kg, iv or 2 mg/kg, po using DMSO/10%(w/v) Kleptose, 0.9% saline(aq) (2%/98%); assay type: ADME, organism-based, Canis lupus familiaris; conditions: beagle, in vivo
metric: half-life (min)
Give the number; min is assumed, so skip it.

// recorded half-life for CC(C)Oc1ccc(-c2nc(-c3ccc4c(c3)CCN(CCCC(=O)O)CC4)no2)cc1C#N : 480

Data point: CC(C)Oc1ccc(-c2nc(-c3cccc4c3cnn4CCC(=O)[O-])no2)cc1Cl.[Na+] ; half-life = 234

Measured half-life of CC(C)Oc1ccc(-c2nc(-c3cccc4c3OCCN(CCCC(=O)O)C4)no2)cc1Cl : 24

###

assay: Solubility in simulated gastric fluid; type: ADME
metric: solubility (µg/mL)
Dear colleague, please return just the value in µg/mL, with no unit written.

For CC(C)Oc1ccc(-c2nc(-c3ccc4c(c3)CCN(CCCC(=O)O)CC4)no2)cc1C#N the molecule record lists solubility as 20

###

Provide the reported solubility at 24 h of each item.
test: Solubility in fed-state simulated intestinal fluid at pH 6.5 after 24 hrs; type: ADME
// note: answer is a bare numeric in µg/mL

Measured solubility at 24 h of CC(C)Oc1ccc(-c2nc(-c3cccc4c3cnn4CCC(=O)[O-])no2)cc1Cl.[Na+] : 11

Lab book: solubility at 24 h of CC(C)Oc1ccc(-c2nc(-c3ccc4c(c3)CCN(CCCC(=O)O)CC4)no2)cc1C#N noted as 30

Entry CC(C)Oc1ccc(-c2nc(-c3cccc4c3OCCN(CCCC(=O)O)C4)no2)cc1Cl ; solubility at 24 h = 320

###

Task for the reader: assign each of the following molecules its reported fraction unbound.
assay: Fraction unbound in dog blood; format: ADME, tissue-based, Canis lupus familiaris

Item: CC(C)Oc1ccc(-c2nc(-c3cccc4c3cnn4CCC(=O)[O-])no2)cc1Cl.[Na+] | fraction unbound: 0.002

Recorded result, CC(C)Oc1ccc(-c2nc(-c3cccc4c3OCCN(CCCC(=O)O)C4)no2)cc1Cl , fraction unbound: 0.018

Entry CC(C)Oc1ncc(-c2nc(-c3cccc4c3OCCNC4CCCC(=O)O)no2)cc1Cl (stereo in doubt; 31b) , fraction unbound reported as 0.015

###

experiment: Oral bioavailability in Beagle dog at 2 mg/kg using Methylcellulose(aq), 1% (w/v) suspension; format: ADME, organism-based, Canis lupus familiaris; settings: beagle, in vivo
What bioavailability was measured for each of the following?
Write it as a number; the unit % goes unstated.

Looking up CC(C)Oc1ccc(-c2nc(-c3ccc4c(c3)CCN(CCCC(=O)O)CC4)no2)cc1C#N , I found its bioavailability recorded as 69

Record CC(C)Oc1ccc(-c2nc(-c3cccc4c3OCCN(CCCC(=O)O)C4)no2)cc1Cl , field bioavailability: 57

Lookup result for CC(C)Oc1ccc(-c2nc(-c3cccc4c3cnn4CCC(=O)[O-])no2)cc1Cl.[Na+] ; measured bioavailability: 94

Briefly, bioavailability measured for CC(C)Oc1ncc(-c2nc(-c3cccc4c3OCCNC4CCCC(=O)O)no2)cc1Cl (stereo in doubt; 31b) : 67

###

Can you tell me solubility at 24 h for the items I'm about to list?
test: Solubility in fed-state simulated intestinal fluid at pH 5 after 24 hrs; format: ADME
Answer format: numeric, µg/mL implied, no suffix.

The value of solubility at 24 h measured for the molecule CC(C)Oc1ccc(-c2nc(-c3ccc4c(c3)CCN(CCCC(=O)O)CC4)no2)cc1C#N turned out to be 100

The molecule listed as CC(C)Oc1ccc(-c2nc(-c3cccc4c3OCCN(CCCC(=O)O)C4)no2)cc1Cl has a reported solubility at 24 h of 30

Measured solubility at 24 h of CC(C)Oc1ccc(-c2nc(-c3cccc4c3cnn4CCC(=O)[O-])no2)cc1Cl.[Na+] : 44

###

assay: Fraction unbound in cynomolgus monkey blood; assay type: ADME, tissue-based, Macaca fascicularis
metric: fraction unbound
Form rule: numeric answer, no unit written next to it.

Measured fraction unbound, CC(C)Oc1ccc(-c2nc(-c3cccc4c3cnn4CCC(=O)[O-])no2)cc1Cl.[Na+] : 0.0018

###

experiment: Volume of distribution at steady state in CD rat at 1 mg/kg, iv or 3 mg/kg, po using DMSO/10%(w/v) Kleptose, 0.9% saline(aq) (2%/98%); assay type: ADME, organism-based; details: in vivo, read-out: Vdss
metric: Vd (L/kg)
State the answer as a number, implicitly in L/kg.

Vd reported for this compound CC(C)Oc1ccc(-c2nc(-c3cccc4c3cnn4CCC(=O)[O-])no2)cc1Cl.[Na+] : 1

Query CC(C)Oc1ccc(-c2nc(-c3cccc4c3OCCN(CCCC(=O)O)C4)no2)cc1Cl yields Vd of 1.2

// Vd lookup, compound = CC(C)Oc1ncc(-c2nc(-c3cccc4c3OCCNC4CCCC(=O)O)no2)cc1Cl (stereo in doubt; 31b) , result: 0.4

Item: CC(C)Oc1ccc(-c2nc(-c3cccc4c3CCNC4CC(=O)O)no2)cc1Cl (stereo not given) | Vd: 2.7

Record summary for CC(C)Oc1ccc(-c2nc(-c3ccc4c(c3)CCN(CCCC(=O)O)CC4)no2)cc1C#N : reported Vd = 1.5
